All values here come from patent US20090069370A1.

molecules and their reported melting point
Structures can show the parent of a compound that is named as a salt.

Guide cases for melting point, answers given:
CCN1CCC(N2Cc3cc(-c4ccc(C#N)cc4)ccc3C2=O)CC1 (as salt: hydrochloride) [Example 24]	> 300 °C
CCCN1CCC(N2Cc3cc(-c4ccc(C#N)cc4)ccc3C2=O)CC1 (as salt: hydrochloride) [Example 25]	300 to 302 °C
O=C1c2ccc(-c3ccccc3)cc2CCN1[C@@H]1CCN(C2CCC2)C1 (as salt: hydrochloride) [Example 50]	> 255 °C
O=C(c1ccc(Oc2ccc3c(c2)CCN(C2CCN(C4CCC4)CC2)C3=O)cc1)N1CCCC1 (as salt: hydrochloride) [Example 12]	253 to 255 °C

Record summary for O=C(NC1CC1)c1ccc(Oc2ccc3c(c2)CCN(C2CCN(C4CCC4)CC2)C3=O)cc1 (as salt: hydrochloride) [Example 7] : reported melting point = 307 to 309 °C

Record summary for CCN(CC)C(=O)c1ccc(Oc2ccc3c(c2)CCN(C2CCN(C4CCC4)CC2)C3=O)cc1 (as salt: hydrochloride) [Example 11] : reported melting point = 249 to 251 °C

Record summary for CC(C)N1CC[C@@H](N2CCc3cc(-c4ccc(C(=O)N5CCCC5)cc4F)ccc3C2=O)C1 (as salt: hydrochloride) [Example 84] : reported melting point = 249 to 250 °C

Record summary for CN(C)C(=O)c1ccc(-c2ccc3c(c2)CCN([C@@H]2CCN(C4CCC4)C2)C3=O)cc1 (as salt: hydrochloride) [Example 46] : reported melting point = 211 to 212 °C

====

molecules and their reported melting point
Counter-ions that a name gives are not always drawn.

CCNC(=O)c1ccc(-c2ccc3c(c2)CCN([C@@H]2CCN(C4CCC4)C2)C3=O)c(F)c1 (as salt: hydrochloride) [Example 77]	> 205 °C
CCNC(=O)c1ccc(-c2ccc3c(c2)CCN([C@@H]2CCN(C4CCCC4)C2)C3=O)cc1 (as salt: hydrochloride) [Example 42]	> 200 °C
CC(C)N1CC[C@@H](N2CCc3cc(-c4ccc(C(=O)N5CCCC5)cc4)ccc3C2=O)C1 (as salt: hydrochloride) [Example 56]	220 to 222 °C

Record summary for O=C(c1ccc(-c2ccc3c(c2)CCN([C@@H]2CCN(C4CCC4)C2)C3=O)cc1)N1CCCC1 (as salt: hydrochloride) [Example 47] : reported melting point = 215 to 217 °C

Record summary for CNC(=O)c1ccc(Oc2ccc3c(c2)CCN([C@@H]2CCN(C4CCC4)C2)C3=O)cc1 (as salt: hydrochloride) [Example 33] : reported melting point = 206 to 208 °C

Record summary for CNC(=O)c1ccc(Oc2ccc3c(c2)CCN([C@@H]2CCN(C4CCCC4)C2)C3=O)cc1 (as salt: hydrochloride) [Example 37] : reported melting point = 223 to 224 °C

Record summary for O=C(NC1CCCC1)c1ccc(Oc2ccc3c(c2)CCN(C2CCN(C4CCC4)CC2)C3=O)cc1 (as salt: hydrochloride) [Example 9] : reported melting point = > 300 °C

====

Target: Human Histamine H3 Receptor (Homo sapiens, UniProt Q9Y5N1)
Construct: membrane preparation
Sequence (Q9Y5N1 whole entry): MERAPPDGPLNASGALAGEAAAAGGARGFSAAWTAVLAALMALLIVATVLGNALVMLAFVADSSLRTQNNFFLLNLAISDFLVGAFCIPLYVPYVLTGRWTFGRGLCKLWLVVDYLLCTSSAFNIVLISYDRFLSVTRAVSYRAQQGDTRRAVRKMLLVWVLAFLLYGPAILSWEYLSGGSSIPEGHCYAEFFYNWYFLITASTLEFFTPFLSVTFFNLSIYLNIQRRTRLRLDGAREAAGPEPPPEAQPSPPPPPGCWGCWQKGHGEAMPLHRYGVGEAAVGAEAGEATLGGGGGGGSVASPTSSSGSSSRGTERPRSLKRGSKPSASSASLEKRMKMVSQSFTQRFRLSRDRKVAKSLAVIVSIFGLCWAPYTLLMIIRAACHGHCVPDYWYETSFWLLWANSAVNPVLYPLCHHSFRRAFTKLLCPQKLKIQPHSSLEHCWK
Assay: Methyl histamine binding in human histamine H3 receptor cell line
Conditions: membranes of stably transfected HEK293T cells; radioligand 1 nM; Ki from IC50 by Cheng-Prusoff
pKi: −log10 of the molar value.
molecules and their reported pKi

CNC(=O)c1ccc(Oc2ccc3c(c2)CCN([C@@H]2CCN(C4CCCC4)C2)C3=O)cc1	≥ 8.00

pKi value, target or system Human Histamine H3 Receptor (Homo sapiens, UniProt Q9Y5N1), for O=C(O)c1ccc(Oc2ccc3c(c2)CCN([C@@H]2CCN(C4CCC4)C2)C3=O)cc1 : < 7.00

pKi value, target or system Human Histamine H3 Receptor (Homo sapiens, UniProt Q9Y5N1), for O=C(c1ccc(-c2ccc3c(c2)CCN([C@@H]2CCCN(C4CCC4)C2)C3=O)cc1)N1CCCC1 : 7.60 to 8.00
